As shown below, each of these compounds has a reported minimum viability across doses value.
- Test system: 769-P
- assayName: minimum viability across doses, drug alone, relative to DMSO (fraction); higher = less growth inhibition
- conditionInfo: treatment: drug alone; 5 days
Just the number.

Look over these answered cases.
O=C1NC(=O)[C@@H](c2cn3c4c(cccc24)CCC3)[C@@H]1c1c[nH]c2ccccc12 [ARQ 197 (Tivantinib)]	0.0795
Clc1ccc(C2(c3ccc(-c4cn[nH]c4)cc3)CCNCC2)cc1	0.338
CC(C)NC[C@@H](C(=O)N1CCN(c2ncnc3c2[C@H](C)C[C@H]3O)CC1)c1ccc(Cl)cc1	0.81

Form: Entry = `Nc1ccc(C(=O)Nc2cccc(-c3nc(N4CCOCC4)c4oc5ncccc5c4n3)c2)cn1` | System = 769-P | minimum viability across doses = ____
0.0884

Form: Entry = `CN1CCN(c2ccc3nc(-c4c(N)c5c(F)cccc5[nH]c4=O)[nH]c3c2)CC1` | System = 769-P | minimum viability across doses = ____
0.0627

Form: Entry = `Oc1cccc(-c2nc(N3CCOCC3)c3oc4ncccc4c3n2)c1` | System = 769-P | minimum viability across doses = ____
0.0599

Form: Entry = `N#CCNC(=O)c1ccc(-c2ccnc(Nc3ccc(N4CCOCC4)cc3)n2)cc1` | System = 769-P | minimum viability across doses = ____
0.29

Form: Entry = `Cc1ccc(-n2nc(C(C)(C)C)cc2NC(=O)Nc2ccc(OCCN3CCOCC3)c3ccccc23)cc1` | System = 769-P | minimum viability across doses = ____
0.91

Form: Entry = `N#C/C(=C\c1ccc(O)c(O)c1)C(=O)NCc1ccccc1` | System = 769-P | minimum viability across doses = ____
0.823

Form: Entry = `O=C1NC(=O)/C(=C/c2ccc3nccnc3c2)S1` | System = 769-P | minimum viability across doses = ____
0.891

Form: Entry = `Nc1nc(Nc2ccc(S(N)(=O)=O)cc2)nn1C(=O)c1c(F)cccc1F` | System = 769-P | minimum viability across doses = ____
0.0485

Form: Entry = CO[C@H]1C[C@@H]2CC[C@@H](C)[C@@](O)(O2)C(=O)C(=O)N2CCCC[C@H]2C(=O)O[C@H]([C@H](C)C[C@@H]2CC[C@@H](O)[C@H](OC)C2)CC(=O)[C@H](C)/C=C(\C)[C@@H](O)[C@@H](OC)C(=O)[C@H](C)C[C@H](C)/C=C/C=C/C=C/1C [Rapamycin (Sirolimus)] | System = 769-P | minimum viability across doses = ____
0.504

Form: Entry = `CCn1c(-c2nonc2N)nc2c(C#CC(C)(C)O)ncc(OC[C@H]3CCCNC3)c21` | System = 769-P | minimum viability across doses = ____
0.839

Form: Entry = `CC(=O)c1c(C)c2cnc(Nc3ccc(N4CCNCC4)cn3)nc2n(C2CCCC2)c1=O.Cl` | System = 769-P | minimum viability across doses = ____
0.0631

Form: Entry = CNC(=O)c1cc(Oc2ccc(NC(=O)Nc3cc(C(C)(C)C)nn3-c3ccc4ncccc4c3)c(F)c2)ccn1 [DCC-2036 (Rebastinib)] | System = 769-P | minimum viability across doses = ____
0.752

###

- Test system: ACHN
- assayName: AUC of dose-response viability curve, drug + dasatinib, normalised to DMSO (arbitrary (AUC of normalised viability)); higher = less growth inhibition
- conditionInfo: treatment: drug + dasatinib (fixed dose, not stated); 5 days
As shown below, each of these molecules has a reported AUC of dose-response viability curve value.
Just the number.

CC1(C)CNc2cc(NC(=O)c3cccnc3NCc3ccncc3)ccc21.O=P(O)(O)O.O=P(O)(O)O [Motesanib Diphosphate] + Cc1nc(Nc2ncc(C(=O)Nc3c(C)cccc3Cl)s2)cc(N2CCN(CCO)CC2)n1	2.3
COc1cc2nccc(Oc3ccc(NC(=O)NC4CC4)c(Cl)c3)c2cc1C(N)=O [E7080 (Lenvatinib)] + Cc1nc(Nc2ncc(C(=O)Nc3c(C)cccc3Cl)s2)cc(N2CCN(CCO)CC2)n1	1.96
N#C/C(=C\c1ccc(O)c(O)c1)C(=O)NCc1ccccc1 [AG-490] + Cc1nc(Nc2ncc(C(=O)Nc3c(C)cccc3Cl)s2)cc(N2CCN(CCO)CC2)n1	1.98
CCCCOc1c(C(=O)c2c(F)cc(C)cc2F)cnc2[nH]ncc12 + Cc1nc(Nc2ncc(C(=O)Nc3c(C)cccc3Cl)s2)cc(N2CCN(CCO)CC2)n1	1.18
CC(=O)Nc1cccc(-n2c(=O)n(C3CC3)c(=O)c3c(Nc4ccc(I)cc4F)n(C)c(=O)c(C)c32)c1 + Cc1nc(Nc2ncc(C(=O)Nc3c(C)cccc3Cl)s2)cc(N2CCN(CCO)CC2)n1	1.2

Value lookup for AUC of dose-response viability curve; key = CCS(=O)(=O)c1cccc(-c2cc(C(=O)NC3CCN(C)CC3)c(C)c3[nH]c4ncc(C)cc4c23)c1 [TAK-901] + Cc1nc(Nc2ncc(C(=O)Nc3c(C)cccc3Cl)s2)cc(N2CCN(CCO)CC2)n1
1.5

Value lookup for AUC of dose-response viability curve; key = O=C(NOCC1CC1)c1ccc(F)c(F)c1Nc1ccc(I)cc1Cl + Cc1nc(Nc2ncc(C(=O)Nc3c(C)cccc3Cl)s2)cc(N2CCN(CCO)CC2)n1
1.8

Value lookup for AUC of dose-response viability curve; key = CC(C)(C)c1cc(C=C(C#N)C#N)cc(Br)c1O [AG-1024] + Cc1nc(Nc2ncc(C(=O)Nc3c(C)cccc3Cl)s2)cc(N2CCN(CCO)CC2)n1
2.02

Value lookup for AUC of dose-response viability curve; key = CC(C)NC[C@@H](C(=O)N1CCN(c2ncnc3c2[C@H](C)C[C@H]3O)CC1)c1ccc(Cl)cc1 [GDC-0068] + Cc1nc(Nc2ncc(C(=O)Nc3c(C)cccc3Cl)s2)cc(N2CCN(CCO)CC2)n1
1.43

###

- Test system: SN12C
- assayName: minimum viability across doses, drug alone, relative to DMSO (fraction); higher = less growth inhibition
- conditionInfo: treatment: drug alone; 5 days
Please assign label 0 whenever minimum viability across doses is at or above 0.4, and label 1 whenever it is below.

See these solved cases before continuing.
CCN1CCN(C(=O)Cc2ccc(Nc3ncc(F)c(Nc4ccc(C(=O)Nc5ccccc5Cl)cc4)n3)cc2)CC1	label 0
Cc1cc2c(F)c(Oc3ncnn4cc(OC[C@@H](C)O)c(C)c34)ccc2[nH]1	label 0
O=c1c(O)c(-c2ccc(O)c(O)c2)oc2cc(O)cc(O)c12 [Quercetin (Sophoretin)]	label 0

Confirm or reject: minimum viability across doses of O=C1NC(=O)[C@@H](c2cn3c4c(cccc24)CCC3)[C@@H]1c1c[nH]c2ccccc12 [ARQ 197 (Tivantinib)] lies strictly below 0.4
label 1

Confirm or reject: minimum viability across doses of `C#Cc1cccc(Nc2ncnc3cc(OCCOC)c(OCCO)cc23)c1.Cl` lies strictly below 0.4
label 0

Confirm or reject: minimum viability across doses of `COc1cc2ncnc(Nc3ccc(O)c(Br)c3)c2cc1OC` lies strictly below 0.4
label 0

Confirm or reject: minimum viability across doses of `CC(O)C(=O)O.CC(O)C(=O)O.CN1CCN(c2ccc3nc(-c4c(N)c5c(F)cccc5[nH]c4=O)[nH]c3c2)CC1` lies strictly below 0.4
label 1

Confirm or reject: minimum viability across doses of `COc1cc(CCc2cc(NC(=O)c3ccc(N4C[C@@H](C)N[C@@H](C)C4)cc3)n[nH]2)cc(OC)c1` lies strictly below 0.4
label 1

Confirm or reject: minimum viability across doses of Cc1cc(C(C)Nc2ccccc2)c2nc(N3CCOCC3)cc(=O)n2c1 (stereo not given) lies strictly below 0.4
label 0

Confirm or reject: minimum viability across doses of `Nc1nc(N)c2nc(-c3cccc(O)c3)cnc2n1` lies strictly below 0.4
label 1

Confirm or reject: minimum viability across doses of `OCCn1cc(-c2ccc3c(c2)CC/C3=N\O)c(-c2ccncc2)n1` lies strictly below 0.4
label 0

Confirm or reject: minimum viability across doses of `COC[C@H]1OC(=O)c2coc3c2[C@@]1(C)C1=C(C3=O)[C@@H]2CCC(=O)[C@@]2(C)C[C@@H]1OC(C)=O` lies strictly below 0.4
label 1

Confirm or reject: minimum viability across doses of `CCc1cc(Nc2nccc(-c3c(-c4ccc(OC)c(C(=O)Nc5c(F)cccc5F)c4)nc4ccccn34)n2)c(OC)cc1N1CCC(N2CCN(S(C)(=O)=O)CC2)CC1` lies strictly below 0.4
label 0

Confirm or reject: minimum viability across doses of `Cn1cc(-c2ccc3nnc(Sc4ccc5ncccc5c4)n3n2)cn1` lies strictly below 0.4
label 0

Confirm or reject: minimum viability across doses of `CC(C)(C)c1cc(/C=C(\C#N)C(N)=S)cc(C(C)(C)C)c1O` lies strictly below 0.4
label 0

###

As shown below, each of these compounds has a reported AUC of dose-response viability curve value.
- System: ACHN
- assayName: AUC of dose-response viability curve, drug alone (arbitrary (AUC of normalised viability)); higher = less growth inhibition
- conditionInfo: treatment: drug alone; 5 days
Just the number.

Look over these answered cases.
CS(=O)c1ccc(-c2nc(-c3ccc(F)cc3)c(-c3ccncc3)[nH]2)cc1 (stereo not drawn)	2.51
FC(F)c1nc2ccccc2n1-c1nc(N2CCOCC2)nc(N2CCOCC2)n1	2.36
Nc1ncnc2c1c(-c1cnc3[nH]ccc3c1)nn2C1CCCC1	2.23
Cc1c(CN2CCN(C(=O)[C@H](C)O)CC2)sc2c(N3CCOCC3)nc(-c3cnc(N)nc3)nc12 [GDC-0980 (RG7422)]	1.89
O=C(c1ccc(/C=C/c2n[nH]c3ccccc23)cc1)N1CCNCC1	2.67

Value lookup for AUC of dose-response viability curve; key = `Cc1c(NC(=O)OC[C@@H]2COCCN2)cn2ncnc(Nc3ccc4c(cnn4Cc4cccc(F)c4)c3)c12.Cl`
2.75

Value lookup for AUC of dose-response viability curve; key = `CC(C)(C)c1cc(C=C(C#N)C#N)cc(Br)c1O`
3.56

Value lookup for AUC of dose-response viability curve; key = `Cn1c(=O)n(-c2ccc(C(C)(C)C#N)cc2)c2c3cc(-c4cnc5ccccc5c4)ccc3ncc21`
1.86
